- Assay system: von Willebrand factor full length (Homo sapiens, UniProt P04275 SEQ:764-2813)
- Experiment notes: filter; 38.2% bound at 100 nM vWF
- Test settings: tags: Calbiochem 681300; label: 5'-32P
Readout kind: Kd
Field note: include the unit after the figure.

Query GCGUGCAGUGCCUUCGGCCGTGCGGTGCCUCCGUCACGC (mixed, 2'-OMe/deoxy composite, single PS between mG20 and dT21, 3'-idT) [ARC1368] yields Kd of 1.8 nM
